# Tested on: CD2F1 mice, L1210 leukemia ip, survival T/C
# protocolDetails: NCI In Vivo Anticancer Drug Screen. Data for tumor model L1210 Leukemia (intraperitoneal) in CD2F1 (CDF1) mice
# experimentalContext: endpoint: mean survival time; dose: 50.0 mg/kg/injection; schedule: Q01DX005 (ip); vehicle: distilled water + Tween-80; higher = longer survival
Inconclusive results and toxic doses are left out.
experimentalReadout: T/C

* N=c1ccn2c(n1)OC1C(OC(=O)C34CC5CC(CC(C5)C3)C4)C(COC(=O)C34CC5CC(CC(C5)C3)C4)OC12 (configuration not stated) | 121 % of control
* CCOC(=O)CCCCCSc1n[nH]c(=O)[nH]c1=O | 92 % of control
* CN(C)c1nc2c(c(=O)n(C)c(=O)n2C)n1C | 93 % of control
* CCCCCCCC(=O)/C=C/Sc1n[nH]c(=O)[nH]c1=O | 107 % of control
* CC1(C)OC2C(C3N(c4ccccc4)CCN3c3ccccc3)OC(n3ccc(=O)[nH]c3=O)C2O1 (configuration not stated) | 94 % of control
* CCOC(=O)C(C)Sc1n[nH]c(=O)[nH]c1=O (configuration not stated) | 96 % of control

Requested read-out T/C, target or system CD2F1 mice, L1210 leukemia ip, survival T/C, entry O=c1[nH]c(=O)n(C2CC(O)C(CO)O2)cc1-c1ccccc1 (configuration not stated)
98 % of control

----------
# Tested on: CD2F1 mice, L1210 leukemia ip, survival T/C
# protocolDetails: NCI In Vivo Anticancer Drug Screen. Data for tumor model L1210 Leukemia (intraperitoneal) in CD2F1 (CDF1) mice
# experimentalContext: endpoint: mean survival time; dose: 200.0 mg/kg/injection; schedule: Q01DX009 (ip); vehicle: saline sonified; higher = longer survival
Inconclusive results and toxic doses are left out.
experimentalReadout: T/C

• CC(C)c1cc2c(cc1O)C1(C)CCCC(C)(C#N)C1CC2 (centres undefined) = 89 % of control

Give me T/C for each of these molecules, listed below.
1. CC(C)=NNC(=O)CC(=O)NN=C(C)C
2. [N-]=[N+]=CC(=O)NCC(=O)N/N=C/c1ccccn1

102 % of control
104 % of control

Requested read-out T/C, target or system CD2F1 mice, L1210 leukemia ip, survival T/C, entry O=C(O)c1sc(C(=O)O)c(-c2ccccc2)c1-c1ccccc1
90 % of control

----------
# Tested on: CD2F1 mice, L1210 leukemia ip, survival T/C
# protocolDetails: NCI In Vivo Anticancer Drug Screen. Data for tumor model L1210 Leukemia (intraperitoneal) in CD2F1 (CDF1) mice
# experimentalContext: endpoint: mean survival time; dose: 50.0 mg/kg/injection; schedule: Q01DX009 (ip); vehicle: Klucel (hydroxypropylcellulose) (HPC); higher = longer survival
Toxic doses and inconclusive results are not listed.
experimentalReadout: T/C

Solved cases below.
- Cc1cccc(/C(=C\c2ccc([N+](=O)[O-])cc2)C(=O)Nc2ccc(S(=O)(=O)F)c(C)c2)c1: 91 % of control
- Cc1cc(N2CCN(C)CC2)n2nc(-c3ccc(Cl)cc3)nc2n1: 100 % of control
- Cc1ccc(C(=O)[O][Hg][CH2]C2COC([CH2][Hg][O]C(=O)c3ccc(C)cc3)CO2)cc1 (stereo not drawn): 104 % of control
- S=P(c1ccccc1)(N1CC1)N1CC1: 118 % of control
- CCOP(OCC)SSCn1nc2ccc3ccccc3n2c1=O: 113 % of control
- Cc1cc([N+](=O)[O-])c(S(N)(=O)=O)c([N+](=O)[O-])c1: 95 % of control

Give me T/C for each of these molecules, listed below.
1. [Br][Pt+2][Br].[NH-]CC(=O)O.[NH-]CC(=O)O
2. COc1ccc(NC(=O)Nc2cccc(O)c2)c(Cl)c1

["90 % of control", "95 % of control"]

----------
I'd appreciate it if you could supply T/C values for the items below.
# System: CD2F1 mice, L1210 leukemia ip, survival T/C
# protocolDetails: NCI In Vivo Anticancer Drug Screen. Data for tumor model L1210 Leukemia (intraperitoneal) in CD2F1 (CDF1) mice
# experimentalContext: endpoint: mean survival time; dose: 200.0 mg/kg/injection; schedule: Q01DX009 (ip); vehicle: saline with Tween-80; higher = longer survival
Toxic doses and inconclusive results are not listed.

* O=Cc1cc2c(cc1Br)OCO2 | 97 % of control

Give me T/C for each of these molecules, listed below.
1. CSc1nc(NC(C)C)nc(NC(C)C)n1
2. O=C1OCCC1=P(c1ccccc1)(c1ccccc1)c1ccccc1
3. Cc1ccc(C(=O)Nc2ccccc2I)cc1
4. O=C1CCC(=O)N1CCC1=NCCc2cc(OCc3ccccc3)ccc21
5. Cc1ccc(NS(=O)(=O)c2ccccc2)c([N+](=O)[O-])c1

111 % of control
96 % of control
101 % of control
94 % of control
95 % of control

Record request: T/C value, item CCOC(=O)c1cnc(SC)nc1NC(C)c1ccccc1 (configuration not stated)
89 % of control

----------
# Tested on: CD2F1 mice, L1210 leukemia ip, survival T/C
# protocolDetails: NCI In Vivo Anticancer Drug Screen. Data for tumor model L1210 Leukemia (intraperitoneal) in CD2F1 (CDF1) mice
# experimentalContext: endpoint: median survival time; dose: 100.0 mg/kg/injection; schedule: Q01DX009 (ip); vehicle: saline with Tween-80; higher = longer survival
Toxic doses and inconclusive results are not listed.
I'd appreciate it if you could supply T/C values for the items below.

Solved cases below.
- CN=C(N)N/N=C(\C)c1ccc2c(c1)Cc1ccccc1-2: 101 % of control
- COc1ccc(OC)c(/C=C/c2ccnc3ccccc23)c1: 101 % of control
- CN=C(N)N/N=C(\C)c1ccc2sc3ccc(/C(C)=N/NC(N)=NC)cc3c2c1: 117 % of control

// next item, T/C requested
Record request: T/C value, item O=C1[C@H]2CCC[C@H]2[C@H]2CCC[C@@H]12
106 % of control

----------
# Tested on: CD2F1 mice, L1210 leukemia ip, survival T/C
# protocolDetails: NCI In Vivo Anticancer Drug Screen. Data for tumor model L1210 Leukemia (intraperitoneal) in CD2F1 (CDF1) mice
# experimentalContext: endpoint: mean survival time; dose: 100.0 mg/kg/injection; schedule: Q04DX002 (ip); vehicle: saline with Tween-80; higher = longer survival
Toxic doses and inconclusive results are not listed.
I'd appreciate it if you could supply T/C values for the items below.

Solved cases below.
- CC1=CC(S)NC(=S)N1 (stereo not drawn): 103 % of control
- CCCCCCCCCSc1nc2ccccc2s1: 87 % of control
- NC(=S)NC(=S)Nc1ccc(Cl)cc1: 98 % of control
- CCCC(=O)/C=C\c1ccccc1: 102 % of control
- O=C1c2ccccc2C(O)(c2[nH]nc3ccccc23)N1c1ccccc1 (stereo not drawn): 103 % of control
- C=C(Cc1ccccc1)C(=O)O: 95 % of control
- CCCCCCCCCCCCCCCC(=O)Nc1c(C)cc(C)cc1C: 103 % of control
- C[n+]1nc(-c2ccccc2)oc1-c1ccccc1: 108 % of control
- Cc1ccc(S(=O)(=O)ON/N=C2\C(=O)C3CCC2C3)cc1 (stereo not drawn): 112 % of control
- CC(C)(CC/C(=N\Nc1ccc([N+](=O)[O-])cc1[N+](=O)[O-])c1ccccc1)C1OCCO1: 98 % of control

Give me T/C for each of these compounds, listed below.
1. CCCC(CN(C)C)C(=O)c1ccccc1 (stereo not drawn)
2. O=C(COc1ccc(F)cc1F)OC(=O)Cc1ccc(Br)cc1

86 % of control
101 % of control

Record request: T/C value, item O=C(O)c1cccc(F)c1Br
95 % of control

----------
# Test system: CD2F1 mice, L1210 leukemia ip, survival T/C
# protocolDetails: NCI In Vivo Anticancer Drug Screen. Data for tumor model L1210 Leukemia (intraperitoneal) in CD2F1 (CDF1) mice
# experimentalContext: endpoint: mean survival time; dose: 25.0 mg/kg/injection; schedule: Q01DX009 (ip); vehicle: other; higher = longer survival
Inconclusive results and toxic doses are left out.
I'd appreciate it if you could supply T/C values for the items below.

Solved cases below.
• Cc1cc(=O)oc2cc(OC(=O)C(CCCCN)NC(=O)OCc3ccccc3)ccc12 (centres undefined) = 106 % of control
• COC1=CCc2c(OC)ccc(OC)c2C1 = 103 % of control
• CC(=O)OC1=C(C)C(c2ccc(C)cc2)OC1=O (centres undefined) = 106 % of control

Give me T/C for each of these compounds, listed below.
1. CCOC(=O)C1C(=O)N(c2ccccc2)C(=O)N1c1ccccc1 (centres undefined)
2. COc1cc2c(cc1OC)C1c3cc(OC)c(OC)cc3CCN1CC2
3. O=c1cc(O)cn[nH]1

["89 % of control", "94 % of control", "97 % of control"]

Give me T/C for each of these compounds, listed below.
1. S=c1cc[nH]c2ccccc12
2. COc1ccc(CCNC(=O)c2ccc(OC)c(OC)c2)cc1OC
3. O=C1c2ccccc2C(=O)c2c(O)c3c(c(O)c21)CCC(O)C3 (centres undefined)

102 % of control
90 % of control
107 % of control
